ASSAY REMARKS: Pharmacokinetics of Compound 1 in combination with MK-3475 in subjects with various cancers
Type: in vivo, human
CONDITION INFO: human, plasma, oral, 100 mg BID, Dose Reduction By C4D1 subjects (Table 13), steady state C1D8, geometric mean; read-out: AUC0-12 h (converted)

MOLECULE | AUC(0-t) / µM·h
NS(=O)(=O)NCCNc1nonc1C(=NO)Nc1ccc(F)c(Br)c1 [Compound 1] | 4.42

###

ASSAY REMARKS: Pharmacokinetics of Compound 1 in combination with MK-3475 in subjects with various cancers
Type: in vivo, human
CONDITION INFO: Cohort 7, 300 mg BID, steady state C1D8, geometric mean
ATTRIBUTE MEASURED: Cmax (nM)

COMPOUND | TEST RESULT
NS(=O)(=O)NCCNc1nonc1C(=NO)Nc1ccc(F)c(Br)c1 [Compound 1] | 2520

Ref: patent US20180353483A1
